# Measured On: dCTP pyrophosphatase 1 (Homo sapiens, UniProt Q9H773)
# Sequence (Q9H773 whole entry): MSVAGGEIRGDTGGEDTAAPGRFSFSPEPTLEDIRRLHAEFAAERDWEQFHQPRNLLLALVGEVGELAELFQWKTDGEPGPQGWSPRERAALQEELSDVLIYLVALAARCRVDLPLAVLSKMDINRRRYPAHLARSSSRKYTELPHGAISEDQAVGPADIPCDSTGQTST
# Assay Name: Inhibition of human recombinant full length dCTPase expressed in Escherichia coli BL21(DE3)pLysS using dCTP as substrate after 1 hr by HTS-adapted Malachite Green assay
pIC50: −log10 of the molar value.
Label yes when pIC50 >= 7; otherwise no.

# example entries with known answers
Cc1ccc(Cn2c(C)nc3c([N+](=O)[O-])c(Cl)c(Cl)cc32)cc1 | yes
COc1ccc(Cn2c(C)nc3c([N+](=O)[O-])cccc32)cc1 | no
Cc1nc2c([N+](=O)[O-])c(Cl)c(Cl)cc2n1Cc1cccc(B(O)O)c1 | yes
Cc1nc2c([N+](=O)[O-])c(Cl)c(Cl)cc2n1Cc1ccccc1 | yes

API: above_or_equal(metric=pIC50, cutoff=7) for item Cc1nc2c([N+](=O)[O-])c(F)c(F)cc2n1Cc1ccc(B(O)O)cc1 no

Kindly determine if pIC50 recorded for Cc1nc2c([N+](=O)[O-])c(Cl)c(Cl)cc2n1Cc1ccc(B(O)O)cc1 is above or exactly 7. yes

Dear colleague, could you confirm whether COc1ccc(Cn2c(C)nc3c([N+](=O)[O-])c(C)c(C)cc32)cc1 has pIC50 at or above 7? yes

# bool: pIC50 of Cc1n[nH]c(C)c1CCn1c(C)nc2c([N+](=O)[O-])c(Cl)c(Cl)cc21 >= 7 no

From: ChEMBL document CHEMBL3769365
